- target-or-test-system: 4-oxo-L-proline reductase (HsBDH2) (Homo sapiens)
- Construct: gene BDH2
- Sequence (Q9BUT1 whole entry): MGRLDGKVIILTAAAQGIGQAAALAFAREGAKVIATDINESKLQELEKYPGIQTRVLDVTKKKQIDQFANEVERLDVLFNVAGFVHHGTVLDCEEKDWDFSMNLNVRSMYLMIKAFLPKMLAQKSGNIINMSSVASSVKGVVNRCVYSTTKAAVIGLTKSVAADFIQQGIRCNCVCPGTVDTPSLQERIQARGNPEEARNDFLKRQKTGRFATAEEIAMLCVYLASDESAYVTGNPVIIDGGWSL
- assay-info: ITC at […] °C, pH […] (number of sites fixed at one); also DSF
- Assay type: binding
metric-name: Kd
Include the unit right after the number.

Measured Kd, NC(=O)c1ccc[n+]([C@@H]2O[C@H](COP(=O)([O-])OP(=O)(O)OC[C@H]3O[C@@H](n4cnc5c(N)ncnc54)[C@H](O)[C@@H]3O)[C@@H](O)[C@H]2O)c1 : 29 µM
